System: mPTP
EXPERIMENT: mPTP activity (Ca2+ retention) assay in isolated rat liver mitochondria
Type: biochemical
ASSAY_SETUP: isolated rat liver mitochondria; average value from multiple experiments (n ≥ 2)

MOLECULE: Cc1n[nH]c2cc(/C=C/C(=O)N[C@H]3c4ccccc4C[C@@H]3OCC3CC3)ccc12
TESTED_TARGET: mPTP
mPTP Rat liver pIC50: 7.2
--
MOLECULE: O=C(/C=C/c1cc(F)c2nn[nH]c2c1)NC1CCc2ccccc21 (centres unmarked)
TESTED_TARGET: mPTP
mPTP Rat liver pIC50: 5.6
--
MOLECULE: COc1n[nH]c2cc(/C=C/C(=O)N[C@H]3c4ccccc4C[C@@H]3OC)ccc12
TESTED_TARGET: mPTP
mPTP Rat liver pIC50: 7.0
--
MOLECULE: CCn1c(=O)[nH]c2cc(/C=C/C(=O)Nc3cccc(F)c3C)ccc21
TESTED_TARGET: mPTP
mPTP Rat liver pIC50: 6.6
--
MOLECULE: Cc1ccccc1NC(=O)/C=C/c1ccc2oc(=O)[nH]c2c1
TESTED_TARGET: mPTP
mPTP Rat liver pIC50: 6.5

====

Reported mPTP Rat liver pIC50 values are given for each entry in this list.
System: mPTP
EXPERIMENT: mPTP activity (Ca2+ retention) assay in isolated rat liver mitochondria
Assay type: biochemical
ASSAY_SETUP: isolated rat liver mitochondria; average value from multiple experiments (n ≥ 2)

COMPOUND: O=C(/C=C/c1ccc2oc(=O)[nH]c2c1)NC1CCCc2ccccc21 (stereo not drawn) [Example 57]
mPTP Rat liver pIC50: 5.8
//
COMPOUND: Cc1c(F)cccc1NC(=O)/C=C/c1ccc2cn[nH]c2c1 [Comparative Example 1, reference compound]
mPTP Rat liver pIC50: 8.0
//
COMPOUND: Cc1c(F)cccc1NC(=O)/C=C/c1ccc2c(c1F)NC(=O)C2 [Example 5]
mPTP Rat liver pIC50: 6.7
//
COMPOUND: CC1Cc2ccccc2C1NC(=O)/C=C/c1ccc2c(c1)[nH]c(=O)n2C (stereo not drawn) [Example 45]
mPTP Rat liver pIC50: 6.3
//
COMPOUND: Cc1c(F)cccc1NC(=O)/C(F)=C/c1ccc2c(c1)NC(=O)C2 [Example 47]
mPTP Rat liver pIC50: 5.9
//
COMPOUND: O=C(/C=C/c1ccc2c(C3CC3)n[nH]c2c1)NC1CCc2ccccc21 (stereo not drawn) [Example 33]
mPTP Rat liver pIC50: 6.3
//
COMPOUND: Cc1ccc(Cl)cc1NC(=O)/C=C/c1ccc2oc(=O)[nH]c2c1 [Example 63]
mPTP Rat liver pIC50: 4.9
//
COMPOUND: Cc1c(F)cccc1NC(=O)/C=C/c1ccc2c(c1)NC(=O)C2(C)C [Example 3]
mPTP Rat liver pIC50: 6.4
//
COMPOUND: CC1CCc2ccccc2C1NC(=O)/C=C/c1ccc2c(c1)NC(=O)C2 (stereo not drawn) [Example 58]
mPTP Rat liver pIC50: 5.5

====

System: mPTP
EXPERIMENT: mPTP activity (Ca2+ retention) assay in isolated rat liver mitochondria
Assay type: biochemical
ASSAY_SETUP: isolated rat liver mitochondria; average value from multiple experiments (n ≥ 2)
Experimental: Pharmacological inhibition or modulation of the mPTP can be measured in well characterised ‘Ca^2+ retention’ assays performed in isolated mitochondria. […] The distribution of Ca^2+ between extra- and intra-mitochondrial compartments can be measured in real time with the use of membrane-impermeant Ca^2+ sensitive fluorescent dyes. […] MPTP activity was measured in mitochondria freshly isolated from female Sprague Dawley (250 to 300 gram) rat livers using the following method. […]
Classify as follows. Reported mPTP Rat liver pIC50 greater than or equal to 7: true (1). Reported mPTP Rat liver pIC50 below: false (0).

COMPOUND: CC1Cc2ccccc2C1NC(=O)/C=C/c1ccc2c(c1)NC(=O)C2 (centres unmarked)
LABEL: false (0)

COMPOUND: Cc1cccc(C)c1NC(=O)/C=C/c1ccc2c(C)n[nH]c2c1
LABEL: true (1)

COMPOUND: CCc1n[nH]c2cc(/C=C/C(=O)NC3CCc4ccccc43)ccc12 (centres unmarked)
LABEL: false (0)

COMPOUND: Cc1n[nH]c2cc(/C=C/C(=O)Nc3cccc4cnn(C)c34)ccc12
LABEL: true (1)

====

EXPERIMENT: PBS and FaSSIF solubility
Type: physicochemical
ASSAY_SETUP: fasted state simulated intestinal fluid (FaSSIF), fassif, kinetic from dmso stock; Fasted state simulated intestinal fluid, 2 hr at 25° C.; read-out: Solubility FaSSIF
Reported solubility at 2 h values are given for each entry in this list.

COMPOUND: COc1cc(C)c(NC(=O)/C=C/c2ccc3c(F)n[nH]c3c2)c(C)n1 [Example 93]
UNIT: µM
solubility at 2 h: 151
//
COMPOUND: Cc1c(F)cccc1NC(=O)/C=C/c1ccc2c(c1F)NC(=O)C2 [Example 5]
UNIT: µM
solubility at 2 h: 66
//
COMPOUND: Cc1n[nH]c2cc(/C=C/C(=O)N[C@H]3c4ccccc4C[C@@H]3OCCF)ccc12 [Example 68]
UNIT: µM
solubility at 2 h: 61.7
//
COMPOUND: CCO[C@H]1Cc2ccccc2[C@@H]1NC(=O)/C=C/c1ccc2c(C)n[nH]c2c1 [Example 69]
UNIT: µM
solubility at 2 h: 181
//
COMPOUND: Cc1ncc(F)c(C)c1NC(=O)/C=C/c1ccc2c(C)n[nH]c2c1 [Example 113]
UNIT: µM
solubility at 2 h: 8
//
COMPOUND: COc1cc(C)c(NC(=O)/C=C/c2cc3[nH]nc(Cl)c3cc2F)c(C)n1 [Example 96]
UNIT: µM
solubility at 2 h: 14
//
COMPOUND: CO[C@H]1Cc2ccccc2[C@@H]1NC(=O)/C=C/c1ccc2c(F)n[nH]c2c1 [Example 73]
UNIT: µM
solubility at 2 h: 37.5
//
COMPOUND: Cc1c(F)cccc1NC(=O)/C=C/c1ccc2c(c1)NC(=O)C2C (stereo not drawn) [Example 8]
UNIT: µM
solubility at 2 h: 220
//
COMPOUND: Cc1c(F)cccc1NC(=O)/C=C/c1ccc2cn[nH]c2c1 [Comparative Example 1, reference compound]
UNIT: µM
solubility at 2 h: 4
//
COMPOUND: Cc1c(F)cccc1NC(=O)/C=C/c1ccc2c(c1)[nH]c(=O)n2C [Example 7]
UNIT: µM
solubility at 2 h: 22.5
//
COMPOUND: COc1cc(C)c(NC(=O)/C=C/c2ccc3c(C#N)n[nH]c3c2)c(C)n1 [Example 94]
UNIT: µM
solubility at 2 h: 43
//
COMPOUND: O=C(/C=C/c1cc2[nH]nnc2cc1F)NC1CCc2ccccc21 (stereo not drawn) [Example 27]
UNIT: µM
solubility at 2 h: 43.1
//
COMPOUND: Cc1cccc(C)c1NC(=O)/C=C/c1ccc2c(c1)[nH]c(=O)n2C [Example 29]
UNIT: µM
solubility at 2 h: 69.8
//
COMPOUND: COc1cc(C)c(NC(=O)/C=C/c2cc3[nH]nc(C)c3cc2F)c(C)n1 [Example 95]
UNIT: µM
solubility at 2 h: 76
//
COMPOUND: Cc1c(F)cccc1NC(=O)/C=C/c1ccc2c(C)n[nH]c2c1 [Example 37]
UNIT: µM
solubility at 2 h: 2.95
//
COMPOUND: Cc1ccc(F)c(C)c1NC(=O)/C=C/c1ccc2c(c1)NC(=O)C2 [Example 20]
UNIT: µM
solubility at 2 h: 210
//
COMPOUND: Cc1c(F)cccc1NC(=O)/C=C/c1ccc2c(c1)NC(=O)C2 [Example 10]
UNIT: µM
solubility at 2 h: 74
//
COMPOUND: COc1cc(C)c(NC(=O)/C=C/c2cc3[nH]nc(F)c3cc2F)c(C)n1 [Example 97]
UNIT: µM
solubility at 2 h: 35

====

EXPERIMENT: Microsomal clearance assay
Assay type: in vitro ADME
ASSAY_SETUP: rat liver microsomes; average value from two experiments
RESULT_TYPE: microsomal CLint at 1 µM (µL/min/mg)

COMPOUND: Cc1c(F)cccc1NC(=O)/C=C/c1ccc2oc(=O)[nH]c2c1 [Example 6]
DATA_VALUE: 17
--
COMPOUND: Cc1c(F)cccc1NC(=O)/C=C/c1ccc2c(c1)NC(=O)C2 [Example 10]
DATA_VALUE: 13
--
COMPOUND: Cc1c(F)cccc1NC(=O)/C=C/c1ccc2c(c1)NC(=O)C2C (centres unmarked) [Example 8]
DATA_VALUE: 13
--
COMPOUND: Cc1cccc(C)c1NC(=O)/C=C/c1ccc2c(c1)NC(=O)C2 [Example 19]
DATA_VALUE: 20
--
COMPOUND: Cc1n[nH]c2cc(/C=C/C(=O)NC3CCc4ccccc43)ccc12 (centres unmarked) [Example 25]
DATA_VALUE: 52.9
